# SYSTEM TESTED: hSCN9A (Homo sapiens)
# Construct: expressed in transfected cells
# Sequence (Q15858 whole entry): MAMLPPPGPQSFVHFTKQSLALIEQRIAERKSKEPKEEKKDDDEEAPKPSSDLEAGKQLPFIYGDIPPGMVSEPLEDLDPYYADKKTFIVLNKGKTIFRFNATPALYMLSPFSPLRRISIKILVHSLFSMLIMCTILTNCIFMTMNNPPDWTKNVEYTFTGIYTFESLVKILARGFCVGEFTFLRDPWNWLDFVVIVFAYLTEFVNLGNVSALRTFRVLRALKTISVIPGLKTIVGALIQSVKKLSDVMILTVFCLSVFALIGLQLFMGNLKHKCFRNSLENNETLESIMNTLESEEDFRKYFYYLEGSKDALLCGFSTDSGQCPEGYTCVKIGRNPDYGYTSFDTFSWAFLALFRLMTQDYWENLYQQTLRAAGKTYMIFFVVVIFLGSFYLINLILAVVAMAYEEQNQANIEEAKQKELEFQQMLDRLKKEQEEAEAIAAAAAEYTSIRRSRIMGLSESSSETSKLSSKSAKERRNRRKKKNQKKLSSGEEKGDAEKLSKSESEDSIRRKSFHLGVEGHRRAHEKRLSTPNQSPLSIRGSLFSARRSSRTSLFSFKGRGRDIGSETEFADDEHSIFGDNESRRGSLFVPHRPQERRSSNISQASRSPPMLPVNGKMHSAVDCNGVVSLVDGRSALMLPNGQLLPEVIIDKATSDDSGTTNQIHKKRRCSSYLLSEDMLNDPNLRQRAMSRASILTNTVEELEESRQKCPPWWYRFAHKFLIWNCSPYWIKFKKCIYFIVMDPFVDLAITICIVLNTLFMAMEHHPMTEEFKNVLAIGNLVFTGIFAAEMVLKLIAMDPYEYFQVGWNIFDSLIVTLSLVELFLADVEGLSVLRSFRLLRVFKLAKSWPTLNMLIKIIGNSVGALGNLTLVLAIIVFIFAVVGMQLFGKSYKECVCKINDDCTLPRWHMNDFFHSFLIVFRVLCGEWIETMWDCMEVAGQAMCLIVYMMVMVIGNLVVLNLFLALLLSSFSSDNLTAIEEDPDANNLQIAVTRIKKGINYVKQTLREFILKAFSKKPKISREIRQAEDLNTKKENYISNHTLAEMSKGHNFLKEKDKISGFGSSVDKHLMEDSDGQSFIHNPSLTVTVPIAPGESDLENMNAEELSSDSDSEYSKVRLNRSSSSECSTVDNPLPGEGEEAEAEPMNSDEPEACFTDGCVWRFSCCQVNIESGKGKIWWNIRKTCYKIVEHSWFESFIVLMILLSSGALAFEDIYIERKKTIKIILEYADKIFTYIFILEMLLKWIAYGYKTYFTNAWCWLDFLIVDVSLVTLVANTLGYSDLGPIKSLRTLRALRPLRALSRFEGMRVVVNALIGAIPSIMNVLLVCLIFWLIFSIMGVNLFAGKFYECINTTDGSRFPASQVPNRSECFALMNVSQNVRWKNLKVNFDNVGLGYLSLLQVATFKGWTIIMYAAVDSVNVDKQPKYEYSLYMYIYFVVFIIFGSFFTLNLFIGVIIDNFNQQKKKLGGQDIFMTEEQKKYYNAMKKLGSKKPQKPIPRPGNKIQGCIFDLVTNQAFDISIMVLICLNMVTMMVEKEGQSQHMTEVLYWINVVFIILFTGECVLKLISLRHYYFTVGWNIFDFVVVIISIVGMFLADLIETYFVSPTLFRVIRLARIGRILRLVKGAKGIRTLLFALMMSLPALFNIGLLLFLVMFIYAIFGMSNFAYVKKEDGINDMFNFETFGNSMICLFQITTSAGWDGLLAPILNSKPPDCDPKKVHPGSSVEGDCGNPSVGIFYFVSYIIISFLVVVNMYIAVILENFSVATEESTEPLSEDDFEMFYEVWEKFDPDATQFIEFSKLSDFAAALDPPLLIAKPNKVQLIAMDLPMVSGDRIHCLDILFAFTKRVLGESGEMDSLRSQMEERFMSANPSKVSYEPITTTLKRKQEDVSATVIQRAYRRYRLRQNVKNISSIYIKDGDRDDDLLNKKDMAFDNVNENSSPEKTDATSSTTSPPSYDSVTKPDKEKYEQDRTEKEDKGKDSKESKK
# EXPERIMENT SUMMARY: Whole-cell patch-clamp electrophysiology (conventional or PatchXpress), HEK cells expressing hSCN9A, estimated IC-50
# Assay type: cell-based
# CONDITION SUMMARY: estimated IC-50, HEK cells expressing hSCN9A; class symbols or bounds; read-out: SCN9A EIC-50
# Procedure: Human Embryonic Kidney (HEK) cells were transfected with hSCN3A or hSCN9A constructs using lipofectamine reagent (Invitrogen), using standard techniques. […] The voltage-dependence of inactivation was determined by applying a series of depolarizing prepulses (8 sec long in 10 mV increments) from a negative holding potential. […] Cells were then voltage clamped at the empirically determined V1/2. […]

MOLECULE: O=S(=O)(Nc1nccs1)c1ccc(Nc2ccnn2-c2ccccc2)cc1 [Compound 151]
IC50: 2000 to 10000 nM
//
MOLECULE: O=S(=O)(Nc1nccs1)c1ccc(Nc2nc(CNCc3ccc(C(F)(F)F)cc3)cs2)cc1 [Compound 71]
IC50: 2000 to 10000 nM
//
MOLECULE: Cc1cc(Nc2ccc(S(=O)(=O)Nc3nccs3)c(F)c2)n(-c2ccc(F)cc2Cl)n1 [Compound 182]
IC50: < 2000 nM
//
MOLECULE: Cc1nn(C)c(Nc2ccc(S(=O)(=O)Nc3nccs3)cc2)c1-c1ccccc1 [Compound 122]
IC50: > 1000 nM
//
MOLECULE: COc1ccc(C(=O)Cn2cc3cc(S(=O)(=O)Nc4nccs4)ccc3n2)c(OC)c1 [Compound 277]
IC50: < 2000 nM
//
MOLECULE: O=S(=O)(Nc1nccs1)c1ccc(Nc2nc3ccccc3o2)cc1 [Compound 114]
IC50: 2000 to 10000 nM
//
MOLECULE: Cc1cc(Nc2ccc(S(=O)(=O)Nc3nccs3)c(F)c2)n(-c2cccc(C(F)(F)F)c2)n1 [Compound 181]
IC50: < 2000 nM
//
MOLECULE: O=S(=O)(Nc1nccs1)c1ccc(Nc2ccn(Cc3ccc(Cl)cc3)n2)c(F)c1 [Compound 184]
IC50: < 2000 nM
//
MOLECULE: Cn1c(Nc2ccc(S(=O)(=O)Nc3nccs3)cc2)nc2cc(Cl)ccc21 [Compound 100]
IC50: 2000 to 10000 nM
//
MOLECULE: COc1ccccc1-n1nc(C(C)(C)C)cc1Nc1ccc(S(=O)(=O)Nc2nccs2)c(F)c1 [Compound 214]
IC50: < 2000 nM
//
MOLECULE: O=S(=O)(Nc1nccs1)c1ccc(Nc2nc(CNC(c3ccccc3)c3ccccc3)cs2)cc1 [Compound 60]
IC50: 2000 to 10000 nM
//
MOLECULE: O=S(=O)(Nc1nccs1)c1ccc(Nc2ccn(Cc3ccc(Cl)cc3)n2)cc1C(F)(F)F [Compound 212]
IC50: 2000 to 10000 nM
//
MOLECULE: O=S(=O)(Nc1nccs1)c1ccc(Nc2nc(CNCCCCc3ccccc3)cs2)cc1 [Compound 69]
IC50: < 2000 nM
//
MOLECULE: O=S(=O)(Nc1ccncn1)c1ccc(Nc2ccn(Cc3ccc(Cl)cc3)n2)cc1F [Compound 262]
IC50: 2000 to 10000 nM
//
MOLECULE: CC(C)(C)n1nc(Cc2ccc(Cl)cc2)cc1Nc1ccc(S(=O)(=O)Nc2ccccn2)cc1 [Compound 110]
IC50: > 10000 nM
//
MOLECULE: Cc1cc(Nc2ccc(S(=O)(=O)Nc3nccs3)cc2)n(Cc2ccc(Cl)cc2)n1 [Compound 128]
IC50: 2000 to 10000 nM
//
MOLECULE: CC(C)(C)c1csc(Nc2ccc(S(=O)(=O)Nc3nccs3)cn2)n1 [Compound 106]
IC50: > 1000 nM

----------
# SYSTEM TESTED: hSCN9A (Homo sapiens)
# Construct: expressed in transfected cells
# EXPERIMENT SUMMARY: Whole-cell patch-clamp electrophysiology (conventional or PatchXpress), HEK cells expressing hSCN9A, estimated IC-50
# Format: cell-based
# CONDITION SUMMARY: estimated IC-50, HEK cells expressing hSCN9A; class symbols or bounds; read-out: SCN9A EIC-50
# Method: Human Embryonic Kidney (HEK) cells were transfected with hSCN3A or hSCN9A constructs using lipofectamine reagent (Invitrogen), using standard techniques. […] The voltage-dependence of inactivation was determined by applying a series of depolarizing prepulses (8 sec long in 10 mV increments) from a negative holding potential. […] Cells were then voltage clamped at the empirically determined V1/2. […]
pIC50: −log10 of the molar value.
The reader will find reported pIC50 values listed item by item below.

MOLECULE: Cc1cc(Nc2ccc(S(=O)(=O)Nc3nccs3)c(F)c2)n(-c2ccccc2Cl)n1
pIC50: > 5.70
//
MOLECULE: CC(Oc1ccccc1)c1csc(Nc2ccc(S(=O)(=O)Nc3nccs3)cc2)n1 (stereo not shown)
pIC50: 5.00 to 5.70
//
MOLECULE: Cc1cc(Nc2ccc(S(=O)(=O)Nc3nccs3)c(F)c2)n(C(C)C2CC2)n1 (stereo not shown)
pIC50: > 5.70
//
MOLECULE: O=S(=O)(Nc1nccs1)c1ccc(Nc2nc(CNCCC(c3ccccc3)c3ccccc3)cs2)cc1
pIC50: > 5.70
//
MOLECULE: Cc1cc(Nc2ccc(S(=O)(=O)Nc3nnc(C)o3)c(F)c2)n(-c2ccccc2)n1
pIC50: 5.00 to 5.70
//
MOLECULE: O=S(=O)(Nc1nccs1)c1ccc(Nc2nc(CSc3ccc(F)cc3)cs2)cc1
pIC50: > 5.70
//
MOLECULE: O=S(=O)(Nc1cccnn1)c1ccc(Nc2ccn(Cc3ccc(Cl)cc3)n2)cc1F
pIC50: < 6.00
//
MOLECULE: COc1ccc(OC(F)(F)F)cc1Cn1cc(Nc2ccc(S(=O)(=O)Nc3nccs3)c(F)c2)cn1
pIC50: > 5.70
//
MOLECULE: COc1ccccc1-n1nc(C)cc1Nc1ccc(S(=O)(=O)Nc2nccs2)c(F)c1
pIC50: > 5.70
//
MOLECULE: O=S(=O)(Nc1nccs1)c1ccc(Nc2ccnn2-c2ccccc2)cc1F
pIC50: > 5.70

----------
# SYSTEM TESTED: hSCN3A (Homo sapiens)
# Construct: expressed in transfected cells
# Sequence (Q9NY46 whole entry): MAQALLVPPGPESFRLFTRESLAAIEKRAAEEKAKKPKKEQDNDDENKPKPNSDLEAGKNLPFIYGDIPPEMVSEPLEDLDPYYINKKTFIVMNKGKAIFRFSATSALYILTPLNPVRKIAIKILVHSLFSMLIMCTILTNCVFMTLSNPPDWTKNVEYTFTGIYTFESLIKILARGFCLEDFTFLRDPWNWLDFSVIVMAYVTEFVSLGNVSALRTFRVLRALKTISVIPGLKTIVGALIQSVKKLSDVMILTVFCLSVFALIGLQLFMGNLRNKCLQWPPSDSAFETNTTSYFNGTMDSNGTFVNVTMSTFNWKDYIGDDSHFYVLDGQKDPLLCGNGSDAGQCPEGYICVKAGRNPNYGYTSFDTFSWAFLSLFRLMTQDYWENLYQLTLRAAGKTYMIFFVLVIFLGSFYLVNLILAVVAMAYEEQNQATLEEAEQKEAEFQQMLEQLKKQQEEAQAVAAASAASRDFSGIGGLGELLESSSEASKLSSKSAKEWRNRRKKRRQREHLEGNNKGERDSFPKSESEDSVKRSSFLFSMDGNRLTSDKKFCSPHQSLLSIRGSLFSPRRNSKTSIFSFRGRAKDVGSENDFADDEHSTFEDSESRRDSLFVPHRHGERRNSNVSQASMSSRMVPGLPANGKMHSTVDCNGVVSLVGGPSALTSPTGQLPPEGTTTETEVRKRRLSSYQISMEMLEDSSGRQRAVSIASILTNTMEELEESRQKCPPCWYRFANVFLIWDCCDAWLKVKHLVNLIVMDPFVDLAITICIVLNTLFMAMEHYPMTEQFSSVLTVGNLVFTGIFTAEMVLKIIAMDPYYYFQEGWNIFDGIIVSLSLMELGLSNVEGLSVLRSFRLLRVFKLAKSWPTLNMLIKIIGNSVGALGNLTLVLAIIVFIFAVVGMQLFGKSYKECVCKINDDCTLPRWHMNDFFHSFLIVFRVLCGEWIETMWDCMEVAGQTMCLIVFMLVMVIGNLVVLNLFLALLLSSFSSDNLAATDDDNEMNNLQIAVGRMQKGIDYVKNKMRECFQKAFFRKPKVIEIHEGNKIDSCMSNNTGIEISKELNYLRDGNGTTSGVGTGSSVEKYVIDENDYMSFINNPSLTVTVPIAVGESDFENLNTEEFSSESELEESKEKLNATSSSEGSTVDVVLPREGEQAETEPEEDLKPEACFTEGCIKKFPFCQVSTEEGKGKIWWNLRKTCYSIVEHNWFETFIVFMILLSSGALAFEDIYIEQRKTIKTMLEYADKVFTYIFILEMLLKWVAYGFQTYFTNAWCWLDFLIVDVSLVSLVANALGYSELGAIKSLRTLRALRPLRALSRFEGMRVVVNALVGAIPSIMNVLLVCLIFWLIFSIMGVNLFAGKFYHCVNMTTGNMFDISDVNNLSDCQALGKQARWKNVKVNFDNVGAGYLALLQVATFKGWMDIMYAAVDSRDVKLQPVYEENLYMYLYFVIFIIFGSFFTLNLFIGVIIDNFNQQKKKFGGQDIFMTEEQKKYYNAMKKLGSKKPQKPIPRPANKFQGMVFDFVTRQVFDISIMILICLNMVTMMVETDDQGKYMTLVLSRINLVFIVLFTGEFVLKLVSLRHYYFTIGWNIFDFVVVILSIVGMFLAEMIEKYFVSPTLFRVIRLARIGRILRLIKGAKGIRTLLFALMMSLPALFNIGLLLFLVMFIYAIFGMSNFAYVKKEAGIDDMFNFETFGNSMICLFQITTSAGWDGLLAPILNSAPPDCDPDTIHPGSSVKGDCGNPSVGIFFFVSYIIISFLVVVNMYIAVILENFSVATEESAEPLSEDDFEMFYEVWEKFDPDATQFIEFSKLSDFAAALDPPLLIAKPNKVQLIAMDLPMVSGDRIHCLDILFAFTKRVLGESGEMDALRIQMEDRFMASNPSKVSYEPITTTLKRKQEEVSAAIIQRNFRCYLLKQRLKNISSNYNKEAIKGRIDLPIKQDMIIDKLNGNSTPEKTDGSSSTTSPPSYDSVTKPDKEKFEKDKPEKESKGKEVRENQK
# EXPERIMENT SUMMARY: Whole-cell patch-clamp electrophysiology (conventional or PatchXpress), HEK cells expressing hSCN3A, estimated IC-50
# Type: cell-based
# CONDITION SUMMARY: estimated IC-50, HEK cells expressing hSCN3A; class symbols or bounds; read-out: SCN3A EIC-50
# Protocol: Human Embryonic Kidney (HEK) cells were transfected with hSCN3A or hSCN9A constructs using lipofectamine reagent (Invitrogen), using standard techniques. […] The voltage-dependence of inactivation was determined by applying a series of depolarizing prepulses (8 sec long in 10 mV increments) from a negative holding potential. […] Cells were then voltage clamped at the empirically determined V1/2. […]
QUANTITY KIND: IC50

COMPOUND: NC(=O)c1cnn(-c2ccc(F)c(Cl)c2)c1Nc1ccc(S(=O)(=O)Nc2nccs2)cc1
MEASURED RESULT: > 1000 nM
//
COMPOUND: O=S(=O)(Nc1nccs1)c1ccc(Nc2cc(Cc3ccc(Cl)cc3)n[nH]2)cc1F
MEASURED RESULT: < 2000 nM
//
COMPOUND: O=S(=O)(Nc1nccs1)c1ccc(Nc2nc(CCCOc3ccc(Cl)cc3)cs2)cc1
MEASURED RESULT: < 2000 nM
//
COMPOUND: O=S(=O)(Nc1nccs1)c1ccc(Nc2ccccc2-c2ccccc2)cc1F
MEASURED RESULT: < 2000 nM
//
COMPOUND: O=S(=O)(Nc1nccs1)c1ccc(Nc2nc(C[S+]([O-])c3ccc(F)cc3)cs2)cc1 (stereo not drawn)
MEASURED RESULT: 2000 to 10000 nM
//
COMPOUND: COc1ccc(C(=O)Cn2ncc3cc(S(=O)(=O)Nc4nccs4)ccc32)c(OC)c1
MEASURED RESULT: < 2000 nM
//
COMPOUND: O=S(=O)(Nc1nccs1)c1ccc(Nc2nccc(OCc3ccccc3)n2)cc1
MEASURED RESULT: < 2000 nM
//
COMPOUND: O=S(=O)(Nc1nccs1)c1ccc(Nc2nc(CNCCC(c3ccccc3)c3ccccc3)cs2)cc1
MEASURED RESULT: < 2000 nM
//
COMPOUND: COc1ccc(C(=O)Cn2cc3cc(S(=O)(=O)Nc4nccs4)ccc3n2)c(OC)c1
MEASURED RESULT: > 1000 nM
//
COMPOUND: O=S(=O)(Nc1nccs1)c1ccc(Nc2nc(Cc3ccc(Cl)cc3)cs2)cc1
MEASURED RESULT: < 2000 nM
//
COMPOUND: CC(C)(C)n1nc(Cc2ccc(Cl)cc2)cc1Nc1ccc(S(=O)(=O)Nc2ccccn2)cc1
MEASURED RESULT: < 2000 nM
//
COMPOUND: CCN(CC)Cc1csc(Nc2ccc(S(=O)(=O)Nc3nccs3)cc2)n1
MEASURED RESULT: > 1000 nM
